test system: Molt3 cells; assay: Cell metabolic assay (MTT); type: cell-based; details: peptide 910 μM
parameter-measured: MTT % Viability (%)
Give the value in % but do not write % after it.

Form field MTT % Viability, entry LJCRF-5: LFA-1α derived short-chain peptide, Sequence ID No. 17 (GVDVDQDGETELIGAPLFYGEQRG) : 52

Form field MTT % Viability, entry LJCRF-4: LFA-1β based modulator peptide, Sequence ID No. 16 (DLSYSLDDLRNVKKLGGDLLRALNE) : 60

Form field MTT % Viability, entry SC-3-152: ICAM-derived short-chain peptide, Sequence ID No. 11; modulator peptide (DQPKLLGIETPLPKKELLLPGNNRK) : 38

----------
tested on: Molt3 cells; experiment: Cell metabolic assay (MTT); format: cell-based; conditions: peptide 230 μM
I'd appreciate it if you could supply MTT % Viability values for the items below.
Give the value in % but do not write % after it.

Form field MTT % Viability, entry LJCRF-5: LFA-1α derived short-chain peptide, Sequence ID No. 17 (GVDVDQDGETELIGAPLFYGEQRG) : 84

Form field MTT % Viability, entry SC-3-111: ICAM-1 based short-chain peptide, Sequence ID No. 10 (QTSVSPSKVI) : 93

Form field MTT % Viability, entry SC-3-223: LFA-1β derived peptide, identical to LJCRF-4 (Sequence ID No. 16), tested separately (DLSYSLDDLRNVKKLGGDLLRALNE) : 109

Form field MTT % Viability, entry LJCRF-4: LFA-1β based modulator peptide, Sequence ID No. 16 (DLSYSLDDLRNVKKLGGDLLRALNE) : 101

Form field MTT % Viability, entry SC-3-152: ICAM-derived short-chain peptide, Sequence ID No. 11; modulator peptide (DQPKLLGIETPLPKKELLLPGNNRK) : 38

----------
tested on: Molt3 cells; assay: Cell metabolic assay (MTT); assay type: cell-based; settings: peptide 910 μM
parameter-measured: MTT % Viability
Respond with the figure and its unit, in that order.

Form field MTT % Viability, entry LJCRF-1: ICAM-1 based short-chain peptide, Sequence ID No. 6 (QTSVSPSKVILPRGGSVLVTG) : 92%

Form field MTT % Viability, entry SC-3-223: LFA-1β derived peptide, identical to LJCRF-4 (Sequence ID No. 16), tested separately (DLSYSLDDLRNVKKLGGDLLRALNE) : 108%

Form field MTT % Viability, entry SC-3-111: ICAM-1 based short-chain peptide, Sequence ID No. 10 (QTSVSPSKVI) : 89%

----------
Test system: Molt3 cells
Experiment: Homotypic adhesion assay (MDHC-induced clumping of T-cells)
Format: cell-based, human
Design: key: Any sample having a score of "+++" or "++++" is considered to have a significant ability to modulate T-cell binding interaction; Any sample having a score of "+++" or "++++" is considered to have a significant ability to modulate T-cell binding interaction
Conditions: peptide 910 μM; 10 μM MDHC
Procedure: As before, the T-cells were Molt3 cells prepared in RPMI 1640 growth medium according to Example 2. An approximate 7 ml aliquot of the growth medium was centrifuged (Jouan Model GT422 at 1400 rpm for 6.5 minutes), and the supernatant fluid was decanted. […] A 228 nmol quantity of the LJCRF-1 (Sequence ID No. 6) peptide described in Table 1 was diluted with the supernatant fluid to a 500 μl final volume, and filtered in microcentrifuge filter tubes (0.22 micron filter; 3500 rpm for 6 minutes). […]
parameter-measured: Homotypic Adhesion Amount

Field: example entries. Status: answers known.
Homotypic Adhesion Amount of LJCRF-4: LFA-1β based modulator peptide, Sequence ID No. 16 (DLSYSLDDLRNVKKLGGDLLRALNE) , assay on Molt3 cells, is ++++

Homotypic Adhesion Amount of LJCRF-5: LFA-1α derived short-chain peptide, Sequence ID No. 17 (GVDVDQDGETELIGAPLFYGEQRG) , assay on Molt3 cells, is ++++

Homotypic Adhesion Amount of SC-3-111: ICAM-1 based short-chain peptide, Sequence ID No. 10 (QTSVSPSKVI) , assay on Molt3 cells, is ++++

Homotypic Adhesion Amount of SC-3-223: LFA-1β derived peptide, identical to LJCRF-4 (Sequence ID No. 16), tested separately (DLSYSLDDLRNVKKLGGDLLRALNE) , assay on Molt3 cells, is ++++

Now turn to the next substance.
Homotypic Adhesion Amount of SC-3-152: ICAM-derived short-chain peptide, Sequence ID No. 11; modulator peptide (DQPKLLGIETPLPKKELLLPGNNRK) , assay on Molt3 cells, is +++
